Overview of reported melting point across a group of compounds:

// solved cases for melting point follow
{"columns": ["compound", "melting point"],
 "data": [
  ["CC(C)(C)c1ccc(S(=O)(=O)C=CSc2ccccc2)cc1", "258 °C"],
  ["C#CCN(C)C(=O)NC", "68 to 69 °C"],
  ["COCC12CCC(=O)CC1CCC1C3CCC(=O)C3(C)CCC12 (stereo unspecified)", "94 to 96 °C"],
  ["N=C(N)NCCc1ccc(OCCC2Oc3ccccc3N(Cc3cc(Cl)cc(Cl)c3)C2=O)cc1 (stereo unspecified)", "116 to 117 °C"],
  ["Cn1ncc2[nH]c3cccc(F)c3c(=O)c21", "> 300 °C"]
]}

State the recorded melting point for this entry: CCCCC1N=C(Cl)/C(=C2\C(=O)Nc3ccccc32)N1Cc1ccc(C(=O)O)cc1 (stereo unspecified)
241 to 242 °C

###

recorded-endpoint: melting point

{"columns": ["molecule", "result"],
 "data": [
  ["O=C(c1ccccc1)c1[nH]c2cc(Cl)ccc2c1NC(=O)N1CCOCC1", "168 to 170 °C"]
]}

State the recorded melting point for this entry: CC1CC2=CC(=O)CCC2C2CCC3(C)C(O)CCC3C12 (stereo not given)
144 to 146 °C

State the recorded melting point for this entry: NC(=O)c1ncccc1OCCNCc1ccccc1
110 to 112 °C

State the recorded melting point for this entry: CC(CCCC(F)(C(F)(F)F)C(F)(F)F)C1CC(=O)C2=C3CCC4CC(O)CCC4(C)C3CCC21C (stereo not given)
177 to 179 °C

State the recorded melting point for this entry: O=C1Nc2cccnc2N(C(=O)NCCN2CCCCC2CCCCN2CCCCC2)c2ccccc21 (stereo not given)
154 to 155 °C

State the recorded melting point for this entry: Brc1ccc(-c2ccc3ccccc3c2)cc1
121 to 123 °C

###

recorded-endpoint: melting point

// solved cases for melting point follow
{"columns": ["compound", "result"],
 "data": [
  ["CCCC1OCc2c(O)c(C)nc(Cl)c21 (stereo not given)", "242 °C"],
  ["CC(=O)Nc1c(C#N)c(OC(C)=O)c(C(C)=O)n1C", "140 to 141 °C"],
  ["O=c1oc2ccccc2cc1S(=O)(=O)Cc1ccc(Cl)cc1", "195 to 196 °C"],
  ["OCCOc1ccc(-c2nc(-c3ccccc3)nc(-c3ccccc3)n2)c(O)c1", "195 °C"],
  ["CC(C)(C)c1cc(CCc2cc(F)ccc2NC(=O)NC2CCN(Cc3ccccc3)CC2)cc(C(C)(C)C)c1O", "108 to 109 °C"],
  ["CCCCCCC(C)(C)c1ccc([C@@H]2CC(=O)C[C@H](C)C2)c(O)c1 (relative stereo)", "95 to 98 °C"],
  ["CCCc1nc(Sc2ccc(OC)cc2)c(CC(=O)O)n1Cc1cc2c(cc1Cl)OCO2", "187 °C"],
  ["COc1ccc(CNc2cc3c(Nc4ccc(F)c(Br)c4)ncnc3cn2)cc1", "181 to 184 °C"]
]}

State the recorded melting point for this entry: CC1Nc2ccc(S(=O)(=O)N3CCCCC3)cc2S(=O)(=O)N1 (stereo not given)
255 to 256 °C

State the recorded melting point for this entry: CS(=O)(=O)N1CC=C(c2ccc3cnc(Nc4ccc(N5CCOCC5)cc4)nn23)CC1
238 to 240 °C

The measurements presented in this section are drawn from a melting point compilation (Tetko et al.; mined from patent text by program, amines drawn as free bases though some values may be those of a salt).
